System: Escherichia coli
Assay method text: Antimicrobial activity against Escherichia coli ATCC 8739 assessed as diameter of the inhibition zone after 24 hrs by paper disk agar diffusion method
Assay type: functional
Here the recorded inhibition zone (IZ) is given for each entry.
Endpoint name: inhibition zone (IZ)

>  <Smiles str>
CCCCCCCCO[C@@H]1C[C@@H](O)[C@H](O)[C@@H](CO)O1

>  <Endpoint name>
inhibition zone (IZ)

>  <Assay value>
<6.4 mm

$$$$
>  <Smiles str>
CCCCCCCCCCCCO[C@H]1C[C@@H](O)[C@H](O)[C@@H](CO)O1

>  <Endpoint name>
inhibition zone (IZ)

>  <Assay value>
<6.4 mm

$$$$
>  <Smiles str>
CCCCCCCCO[C@@H]1C[C@H](O)[C@@H](O)[C@H](C)O1

>  <Endpoint name>
inhibition zone (IZ)

>  <Assay value>
9 mm

$$$$
>  <Smiles str>
CCCCCCCCO[C@H]1C[C@@H](O)[C@H](O)[C@@H](CO)O1

>  <Endpoint name>
inhibition zone (IZ)

>  <Assay value>
<6.4 mm

$$$$
>  <Smiles str>
CCCCCCCCO[C@H]1C[C@H](O)[C@@H](O)[C@H](C)O1

>  <Endpoint name>
inhibition zone (IZ)

>  <Assay value>
8 mm

$$$$
>  <Smiles str>
CCCCCCCCCCCCO[C@@H]1C[C@@H](O)[C@H](O)[C@@H](CO)O1

>  <Endpoint name>
inhibition zone (IZ)

>  <Assay value>
<6.4 mm

$$$$
>  <Smiles str>
CCCCCCCCCCCCO[C@@H]1C[C@H](O)[C@@H](O)[C@H](C)O1

>  <Endpoint name>
inhibition zone (IZ)

>  <Assay value>
<6.4 mm

$$$$
>  <Smiles str>
CCCCCCCCCCCCO[C@H]1C[C@H](O)[C@@H](O)[C@H](C)O1

>  <Endpoint name>
inhibition zone (IZ)

>  <Assay value>
<6.4 mm

$$$$

---

Tested on: Candida albicans
Assay method text: Antimicrobial activity against Candida albicans ATCC 10231 assessed as diameter of the inhibition zone after 48 hrs by paper disk agar diffusion method
Type: functional
Here the recorded inhibition zone (IZ) is given for each entry.
Endpoint name: inhibition zone (IZ) (mm)

>  <Smiles str>
CCCCCCCCO[C@@H]1C[C@@H](O)[C@H](O)[C@@H](CO)O1

>  <Unit name>
mm

>  <Qualifier sign>
<

>  <Assay value>
6.4

$$$$
>  <Smiles str>
CCCCCCCCCCCCO[C@H]1C[C@@H](O)[C@H](O)[C@@H](CO)O1

>  <Unit name>
mm

>  <Qualifier sign>
=

>  <Assay value>
10

$$$$
>  <Smiles str>
CCCCCCCCCCCCO[C@H]1C[C@H](O)[C@@H](O)[C@H](C)O1

>  <Unit name>
mm

>  <Qualifier sign>
<

>  <Assay value>
6.4

$$$$
>  <Smiles str>
CCCCCCCCCCCCO[C@@H]1C[C@@H](O)[C@H](O)[C@@H](CO)O1

>  <Unit name>
mm

>  <Qualifier sign>
=

>  <Assay value>
9

$$$$
>  <Smiles str>
CCCCCCCCO[C@H]1C[C@@H](O)[C@H](O)[C@@H](CO)O1

>  <Unit name>
mm

>  <Qualifier sign>
<

>  <Assay value>
6.4

$$$$
>  <Smiles str>
CCCCCCCCCCCCO[C@@H]1C[C@H](O)[C@@H](O)[C@H](C)O1

>  <Unit name>
mm

>  <Qualifier sign>
<

>  <Assay value>
6.4

$$$$
>  <Smiles str>
CCCCCCCCO[C@@H]1C[C@H](O)[C@@H](O)[C@H](C)O1

>  <Unit name>
mm

>  <Qualifier sign>
=

>  <Assay value>
11

$$$$
>  <Smiles str>
CCCCCCCCO[C@H]1C[C@H](O)[C@@H](O)[C@H](C)O1

>  <Unit name>
mm

>  <Qualifier sign>
=

>  <Assay value>
10

$$$$
